- MEASURED TARGET: FGFR1 (UniProt P11362)
- Sequence (P11362 whole entry, looked up): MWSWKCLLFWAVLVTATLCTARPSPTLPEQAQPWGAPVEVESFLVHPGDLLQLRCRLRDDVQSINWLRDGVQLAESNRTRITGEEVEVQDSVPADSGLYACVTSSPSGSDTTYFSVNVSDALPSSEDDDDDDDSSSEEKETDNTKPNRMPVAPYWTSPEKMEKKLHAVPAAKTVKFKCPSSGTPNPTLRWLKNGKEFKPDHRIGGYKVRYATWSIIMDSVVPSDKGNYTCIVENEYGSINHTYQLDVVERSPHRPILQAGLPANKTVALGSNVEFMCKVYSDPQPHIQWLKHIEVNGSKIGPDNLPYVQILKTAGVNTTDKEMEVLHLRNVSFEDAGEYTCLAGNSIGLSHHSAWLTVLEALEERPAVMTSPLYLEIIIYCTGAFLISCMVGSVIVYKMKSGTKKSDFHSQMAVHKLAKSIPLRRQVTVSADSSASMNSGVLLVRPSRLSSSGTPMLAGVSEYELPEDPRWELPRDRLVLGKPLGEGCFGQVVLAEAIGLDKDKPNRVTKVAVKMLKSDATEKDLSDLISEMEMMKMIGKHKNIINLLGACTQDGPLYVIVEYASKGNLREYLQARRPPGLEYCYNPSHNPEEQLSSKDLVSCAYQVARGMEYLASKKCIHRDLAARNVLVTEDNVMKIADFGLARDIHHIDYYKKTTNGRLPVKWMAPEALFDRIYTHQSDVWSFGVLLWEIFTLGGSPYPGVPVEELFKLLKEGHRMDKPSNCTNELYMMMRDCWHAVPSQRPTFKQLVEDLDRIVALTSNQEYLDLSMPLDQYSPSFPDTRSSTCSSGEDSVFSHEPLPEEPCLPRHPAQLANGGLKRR
- ASSAY NAME: phosphorylation enrichment, bacterial display (enrichment ratio); higher = better substrate or ligand; peptides without Tyr show the background
QUANTITY MEASURED: phosphorylation enrichment

- LIHLHYIRRDF [BBS4_Y43_K46R_YF]: 0.521
- IFRASYFRKGG [ALK_Y1282_YF]: 0.518
- VDLSKYITTIA [FAS_Y232]: 0.363
- TGEDWYVLVRV [SF3B3_Y904_G908R]: 0.405
- QLRPGYIPIPV [BAG3_Y93]: 0.735
- IGKDLYANNVL [ACTA2_Y296_R292G]: 0.45
- FGLDHYQCDCT [PTGS1_Y54_R53H]: 0.453

====

SH2 binding enrichment reference
- MEASURED TARGET: c-Src SH2;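 also: peptide library displayed on the E. coli surface as eCPX fusions, selected cells deep-sequenced, score is each peptide's frequency after selection divided by its frequency in the input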
- ASSAY NAME: SH2 binding enrichment of the phosphorylated peptide, bacterial display (enrichment ratio); higher = better substrate or ligand; peptides without Tyr show the background
QUANTITY MEASURED: SH2 binding enrichment

- IYKAAYFGVYD [SLC25A4_Y191_R188K]: 2.31
- VAMDDYLKNVV [LRRK2_Y707_M712V]: 0.573
- IVRSLYKDLED [VHL_Y185_E186K]: 0.785
- QMQAAYQKVVA [HBD_Y131]: 0.937
- YQKDVYNIPPS [NEDD9_Y177_D178N]: 0.495
- CSRHFYQLTKL [AR_Y858_R856H]: 0.97
- IAINKYGVSLI [MYO7A_Y2136]: 0.657
- LTNDRYLATLT [IL6ST_Y396]: 0.541
- KAIDMYLMGCF [GABRB2_Y308]: 0.44
- NFYEYYVDDPL [GCHFR_Y48_P53L]: 0.856
- EQRRAYLEGTC [HLA-C_Y183_L180R]: 0.456
- SLNEGYAKDFD [FBP1_Y216_R218K]: 0.598
- ELPEKYSQNIY [PKP2_Y626]: 0.419
- ADARMCGVLPW [PLP1_Y207_Y207C]: 0.477
- VMLENYSNLVS [ZFP69_Y109]: 0.669
- KHMADYPDCKY [SOX11_Y113_Y116C]: 1.92
- LLTALYFISWG [KCNH2_Y780_R784W]: 0.666
- VITDFYVDMKF [MPP4_Y567_YF]: 0.607
- RLRKYYLGKYL [KLB_Y906]: 0.341
- SKNSKYNAGST [PSEN1_Y315_E318G]: 0.349
- QQLVAYYSKHA [SRC_Y232]: 0.62
- CEHRGYLFLAI [TEK_Y897_YF]: 0.767
- VTQEQYELHCE [CBL_Y368_Y371H]: 0.571
- VNTMLYEKFTY [TEK_Y1108_T1106M]: 2.15
- GESKDYALHAG [SVIL_Y185_V189A]: 0.521
- LGGSPYPSVPV [FGFR1_Y701_G703S]: 0.476
- VHLFAYDWISI [BEST1_Y227_G222V_YF]: 0.972
- MLEVPYVDRNS [F10_Y384]: 0.457
- NFATLHLKIYH [PDE6B_Y219_Y219H]: 0.885
- ATRKAYGQALA [TKT_Y321]: 0.622
- HNLDYYKQTTN [FGFR3_Y648_K650Q]: 0.839
- VDSAHYQLLET [DTX3L_Y385_K386Q]: 6.34
- SHPSSYTTHPQ [NIPBL_Y195]: 0.477
- DENWFYMRAAS [RPS19_Y54_T55M]: 0.481
- YLAAIYPTVGQ [NF1_Y2508_T2507I]: 1.39
- FTRNYYVWAVL [CYBA_Y88_R90W]: 0.581
- SLKEFYGEDAK [ALDH3A1_Y272]: 0.511
- FSGLAYTMERS [GLUD1_Y512_H507Y_YF]: 0.5
- IHHIDYFKKTT [FGFR1_Y653_YF]: 0.526
- CFTRKYTLPPG [HSPB1_Y142]: 0.477
- HLVSEYQQYQD [TUBB3_Y422_D417H]: 1.02
- MKGEYYRYLAE [YWHAG_Y131_D129E]: 0.676
- FEGAIYRKDVG [GART_Y417]: 0.451
- TDLAYYLVRKG [ASL_Y376]: 0.795
- NLRQQYNSPQE [UMPS_Y432_G429R]: 0.635
- TFFQMYDKGLV [IARS2_Y231_YF]: 0.526
- PEADKYRLPFA [FGG_Y300_T303P_YF]: 0.423
- SMAKFYASEIA [ACADSB_Y373_YF]: 0.393
- DNEALYDICFR [TUBB2B_Y208]: 0.469
- PNAFIYVVQLP [L1CAM_Y420_A415P_YF]: 0.656
- RRIHRYRGHLW [VHL_Y112_S111R]: 0.389
- CEDGTYSPEIS [PTDSS1_Y424]: 0.519
- KLYRVYCDMNT [FGB_Y269_P265L]: 1.22
- NKHTNYTMEHI [ACTN1_Y708]: 0.458
- VLPIDYFFPPQ [AR_Y552_YF]: 0.696
- PQIVKYRPDCI [LDHB_Y128_S129R]: 0.671
- GVKLTYGDAQN [SLC28A1_Y404]: 0.472
- EPTPGYEVGQR [TSC2_Y1788]: 0.6

====

- MEASURED TARGET: EPHB1 (UniProt P54762)
- Sequence (P54762 whole entry, looked up): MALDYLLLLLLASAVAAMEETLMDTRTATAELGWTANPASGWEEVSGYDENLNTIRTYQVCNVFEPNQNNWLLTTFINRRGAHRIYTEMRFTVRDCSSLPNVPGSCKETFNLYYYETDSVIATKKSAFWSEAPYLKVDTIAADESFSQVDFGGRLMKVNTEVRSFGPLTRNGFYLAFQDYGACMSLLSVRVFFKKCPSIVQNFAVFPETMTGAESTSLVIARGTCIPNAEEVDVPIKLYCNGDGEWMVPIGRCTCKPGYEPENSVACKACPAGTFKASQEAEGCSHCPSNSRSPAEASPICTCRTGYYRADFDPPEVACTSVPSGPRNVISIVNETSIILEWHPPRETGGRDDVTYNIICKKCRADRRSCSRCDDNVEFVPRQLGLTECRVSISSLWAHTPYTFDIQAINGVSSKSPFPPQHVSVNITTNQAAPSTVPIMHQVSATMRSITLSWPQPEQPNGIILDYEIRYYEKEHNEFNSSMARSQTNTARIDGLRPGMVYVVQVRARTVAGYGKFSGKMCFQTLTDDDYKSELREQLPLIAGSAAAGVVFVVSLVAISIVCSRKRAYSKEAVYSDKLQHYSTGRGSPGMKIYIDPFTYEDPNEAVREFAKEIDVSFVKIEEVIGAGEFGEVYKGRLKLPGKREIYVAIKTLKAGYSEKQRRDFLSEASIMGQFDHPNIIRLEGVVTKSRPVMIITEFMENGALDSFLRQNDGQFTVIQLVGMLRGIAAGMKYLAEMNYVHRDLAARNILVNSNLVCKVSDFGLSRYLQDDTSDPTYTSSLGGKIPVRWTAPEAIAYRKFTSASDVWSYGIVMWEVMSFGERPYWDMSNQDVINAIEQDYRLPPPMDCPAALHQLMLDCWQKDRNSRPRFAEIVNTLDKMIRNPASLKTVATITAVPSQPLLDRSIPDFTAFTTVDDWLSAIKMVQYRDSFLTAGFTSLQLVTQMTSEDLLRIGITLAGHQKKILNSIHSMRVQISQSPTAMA
- ASSAY NAME: phosphorylation enrichment, bacterial display (enrichment ratio); higher = better substrate or ligand; peptides without Tyr show the background
Would you mind labelling by phosphorylation enrichment? At or over 0.5 is TRUE, under is FALSE.

* AHPIIYEIIEA [PYKtide_E_2014] | TRUE
* LTNDRYLATLT [IL6ST_Y396] | TRUE
* PNAFIYVVQLP [L1CAM_Y420_A415P_YF] | TRUE
* PADCRYFAFPQ [GAMT_Y222_YF] | TRUE
* KVGPGYLGSRG [RET_Y826_G830R] | FALSE
* GGYTWYCDGKK [PROS1_Y266_C265W] | TRUE
* EAIMTYVSSFY [ACTN4_Y260_K255E] | TRUE
* KSPDSYQKILF [ATM_Y1415_L1420F] | FALSE
* RNGDRYFKGIV [DCX_Y64] | FALSE
* RSDEDYLCREE [POR_Y573_Y575C] | TRUE
* FSVDSYDSSVR [KCNQ1_Y461_G460S] | FALSE
* GPTLSYGRDGR [MATR3_Y158] | FALSE
* DGMADYSDPSF [CDC5L_Y459_YF] | TRUE
* HVKHNYECLVY [XRCC5_Y416_I412V] | TRUE
* GVLKEYVVKVL [CPS1_Y529_G530V] | FALSE
* PIPIKYKAMKK [MYD88_Y257_L252P] | FALSE
* RLRKFYLGKFL [KLB_Y906_YF] | FALSE
* FGLTLYPNSRE [MEP1A_Y472_V469L] | TRUE
* RSPLRYTSILT [OR51B6_Y130] | FALSE
* QQLVAYYSKHT [SRC_Y232_A237T] | TRUE
* ETDSEYVKLAK [C7orf57_Y70] | FALSE
* LISVSYDDWDF [GRIN2A_Y281_YF] | TRUE
* VDLSKYITTIA [FAS_Y232] | FALSE
* DAVAVCHGKIS [SH2D1A_Y7_Y7C] | FALSE
* DVLPEYKLQAP [KCNH2_Y388] | TRUE
* ATRKAYGQALA [TKT_Y321] | FALSE
* DRTGHYLCNAC [GATA1_Y223] | FALSE
* KAIDMYLMGCF [GABRB2_Y308] | TRUE
* TFINKYQGKLF [HGD_Y249_V245F] | FALSE
* YSKDNYKRVTG [PANK2_Y405] | FALSE
* ALPGEYIPTVF [RAC1_Y32_F28L] | TRUE
* LERDIYNREEF [HLA-DPB1_Y59_Y57D] | TRUE
* YLGRDYLETLM [DUS3L_Y610] | TRUE
* TEQDPSNNIVR [MMUT_Y364_Y364S] | FALSE
* NHQFDYTFDWT [CSNK1A1_Y294_YF] | TRUE
* IGKDLYANNVL [ACTA2_Y296_R292G] | TRUE
* SIKNKYVTALF [KCNH2_Y611_D609N_YF] | FALSE
* RLLRGHDQSAY [HLA-C_Y137_Y137H] | FALSE
* GYRPVYSEDEQ [CHST6_Y362] | TRUE
* IGRHAYGDQYR [IDH1_Y135] | FALSE
* VDTPMYATMQR [TPO_Y55_A53P] | TRUE
* FAREGYSALPQ [SARS2_Y52_YF] | FALSE
* ISGGGYRARPA [FGB_Y71] | FALSE
* RASSVFTRSTG [CCR5_Y339_Y339F] | TRUE
* SGSFRYGSSCE [SELE_Y390] | FALSE
* PRDSGYSFETI [MAP1B_Y1921_S1917R_YF] | TRUE
* FCIDHYLGKEM [G6PD_Y202_R198C_YF] | TRUE
* VVQGIYGFHHH [UFSP2_Y285_Y290H_YF] | TRUE
* DLDTEYGSGYP [RNASEH2A_Y206_D205E] | TRUE
